- Target desc: T1, alpha subunit of the human FcεRI receptor expressed on Chinese hamster ovary cells (human, UniProt P12319 26-257)
- T1 construct: whole, on cells; also called CHO FcεRI+ cells
- T1 sequence (looked up): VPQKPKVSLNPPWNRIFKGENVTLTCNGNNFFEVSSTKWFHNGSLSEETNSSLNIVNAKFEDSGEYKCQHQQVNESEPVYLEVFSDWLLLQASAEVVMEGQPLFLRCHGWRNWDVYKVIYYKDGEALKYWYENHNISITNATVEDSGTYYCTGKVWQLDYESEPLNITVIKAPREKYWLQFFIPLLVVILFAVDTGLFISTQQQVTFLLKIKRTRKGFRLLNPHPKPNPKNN
- Procedure text: inhibition of 125I-IgE binding to CHO cells expressing human FcεRI alpha subunit
pIC50: −log10 of the molar value. Bridges are numbered along the chain shown (N, C = ends). Where no end group is shown, it is not given here. [ ]: non-standard residue; d: D form. NMeA = CN[C@@H](C)C(=O)O
Label condition met when pIC50 >= 4; otherwise condition not met.

Ac-NLPRCTEG[NMeA]WGWVCM-NH2 (disulfide 5-14, synthetic) [IGE086]
condition met
Ac-NLPRCTEGPWGLVCM (disulfide 5-14 (inferred), synthetic) [IGE109]
condition met
PRCTEGPWGWVCM-NH2 (disulfide 3-12 (inferred), synthetic) [IGE069]
condition met
NLPRCTEGPWGWVCMAAD-NH2 (disulfide 5-14 (inferred), synthetic) [IGE043]
condition met

Check the entry Ac-CLEGPWGWVCI-NH2 (disulfide 1-10 (inferred), synthetic) [IGE080] : does pIC50 equal or exceed 4?
condition not met
